Tested on: Zika virus NS2B-NS3 protease (unlinked complex)
assay-protocol: Primary screen GU Rhodamine qHTS for Zika virus inhibitors: Unlinked NS2B-NS3 protease assay (AID 1347159); further: nearly all actives have a fitted effect of over 60% in size; further: potency means the concentration at half of the fitted maximal effect
assay-conditions: Recombinant ZIKV NS2B-NS3 protease, Rhodamine110 substrate fluorescence; series mostly up to 107 µM
Inconclusive results are not listed. The source made the active and inactive calls. The call rests on the fitted dose curve; in most records, active means well fitted inhibition curve with a large enough effect; inconclusive means small, poorly fitted or top-dose-only effect; inactive means no such curve, though single readings can be large or run the other way.
measured-parameter: Potency

INSERT INTO assay_data (molecule, tgt, experimental_result) VALUES
  ('CCCCN(CCCC)C(=O)CN1C[C@H](c2ccc3c(c2)OCO3)[C@@H](C(=O)O)[C@@H]1c1ccc(OC)cc1', 'Zika virus NS2B-NS3 protease (unlinked complex)', '28.2 µM (active)'),
  ('CC(C)[C@@H](C)/C=C/[C@@H](C)[C@H]1CC[C@H]2C3=CC=C4C[C@@H](O)CC[C@]4(C)[C@H]3CC[C@]12C', 'Zika virus NS2B-NS3 protease (unlinked complex)', 'inactive'),
  ('COc1cc([C@H]2OC[C@@H]3[C@@H](c4ccc(O[C@@H]5O[C@H](CO)[C@@H](O)[C@H](O)[C@H]5O)c(OC)c4)OC[C@]23O)ccc1O', 'Zika virus NS2B-NS3 protease (unlinked complex)', 'inactive'),
  ('COc1ccc(C(OC2OC(CO)C(O)C(O)C2O)C(C)O)cc1 (configuration not stated)', 'Zika virus NS2B-NS3 protease (unlinked complex)', 'inactive'),
  ('C=C[C@](C)(CC/C=C(\C)C(=O)O)O[C@@H]1OC[C@H](O)[C@H](O)[C@H]1O', 'Zika virus NS2B-NS3 protease (unlinked complex)', '25.1 µM (active)'),
  ('C[C@@H]1O[C@@H](OC[C@H]2O[C@@H](OCC3CCC4CC3C4(C)C)[C@H](O)[C@@H](O)[C@@H]2O)[C@H](O)[C@H](O)[C@H]1O (some centres not stated)', 'Zika virus NS2B-NS3 protease (unlinked complex)', 'inactive'),
  ('C[C@@H]1C/C=C/C=C\C=C\C=C\[C@H](O[C@@H]2O[C@H](C)[C@@H](O)[C@H](N)[C@@H]2O)C[C@@H]2O[C@](O)(C[C@@H](O)C[C@H]3O[C@@H]3/C=C/C(=O)O1)C[C@H](O)[C@H]2C(=O)O', 'Zika virus NS2B-NS3 protease (unlinked complex)', 'inactive');

----------
System: Zika virus NS2B-NS3 protease (linked construct)
assay-protocol: Primary screen NINDS Rhodamine qHTS for Zika virus inhibitors (AID 1347160); further: nearly all actives have a fitted effect of over 55% in size
assay-conditions: purified NS2B-NS3 protease, Rhodamine110 substrate fluorescence; series mostly up to 57.1 µM
Results filed as inconclusive are left out. Activity calls are given as the source filed them. Calls follow the shape of the dose curve; as a rule, active = well fitted inhibition curve with a large enough effect; inconclusive = small, poorly fitted or top-dose-only effect; inactive = no such curve, though single readings can be large or run the other way.
Possible outcomes: class 1 = active, class 0 = inactive

INSERT INTO results (molecule, assigned_label) VALUES
  ('COC(=O)C1=CO[C@@H](O[C@@H]2O[C@H](CO[C@@H]3O[C@H](COC(=O)/C=C/c4ccc(O)cc4)[C@@H](O)[C@H](O)[C@H]3O)[C@@H](O)[C@H](O)[C@H]2O)[C@@H]2C(CO)=CC[C@H]12', 'class 0'),
  ('COc1cc(C(C)=O)ccc1O[C@@H]1O[C@H](CO[C@@H]2O[C@@H](C)[C@H](O)[C@@H](O)[C@H]2O)[C@@H](O)[C@H](O)[C@H]1O', 'class 0'),
  ('CC1(C)CCCC2(C)C(CO)C3CCC2C31 (centres undefined)', 'class 0'),
  ('OC[C@H]1O[C@@H](OCCc2ccc(O)cc2)[C@H](O)[C@@H](O)[C@@H]1O', 'class 0'),
  ('Cc1cc(C)c(S(=O)(=O)N(Cc2ccc(-c3cccc(S(C)(=O)=O)c3)cc2)Cc2ccc(C(F)(F)F)o2)c(C)c1', 'class 0'),
  ('CCOC(=O)c1ccnc(CNCC(=O)N(CC)CCN(C)C)c1', 'class 0'),
  ('CC1CCCC2OC2C(=O)c2c(O)cc(O)cc2CC(=O)O1 (centres undefined)', 'class 0'),
  ('C/C=C/C=C/C(CC(=O)O)Nc1ccc(C=O)cc1 (centres undefined)', 'class 1'),
  ('COC(=O)C1=CO[C@@H](O[C@@H]2O[C@H](COC(=O)/C=C/c3cc(OC)c(O)c(OC)c3)[C@@H](O)[C@H](O)[C@H]2O)[C@@H]2C(CO)=CC[C@H]12', 'class 0');
